PROTOCOL: Mouse pharmacokinetics in CD-1 mice (blood, kidney, liver, lung)
Format: in vivo
CONDITION: male, CD-1, mouse, liver, intravenous, 20 mg/kg, Liver; 24 h; 20 mg/kg IV; mean; read-out: Concentration (µM) from 20 mg/kg Dosing Liver
Procedure: For the PK study, a total of 42 male CD-1 mice weighing ~20-35 g were acquired from Lingchang/Vital River Laboratory Animal Co., Ltd. (Shanghai/Beijing, P.R. China) and divided into 2 treatment groups. […] For the low-dose groups, nine animals were required for organ quantification with termination at 24 hours. For the high-dose groups, 12 animals were required for organ quantification with termination at 48 hours. […] The concentrations of […] were quantified by an LC-MS/MS method. […]

COMPOUND	concentration at 24 h
Cc1ncsc1-c1ccc(C(C)NC(=O)C2CC(O)CN2C(=O)C(c2cc(N3CCC(CN4CCC(OC5CC(Oc6cc(N7C8CCC7CN(c7cc(-c9ccccc9O)nnc7N)C8)ccn6)C5)CC4)CC3)no2)C(C)C)cc1 (stereo not shown) [A947]	10.8 µM

Reference source for all entries: paper PMC11099041
